Listing of recorded GI50 by entry.
Test system: SK-OV-3
assay_details: NCI tumour cell line growth inhibition, 48 h
Active and inactive are the calls of the source. Cut-off read from the data, not from the text of the source: active = GI50 up to about 1.1 µM and inactive = higher.

Consider the worked cases shown below.
Task: Notebook entry, SK-OV-3 assay: GI50 of CCOC(=O)c1c(C)n(Cc2ccccc2)c2c1cc(O)c1[nH]c3c(c12)CCCC3 = ?
Output: 10.3 µM (inactive)

Task: For SK-OV-3, provide GI50 of CCCCCCCCCCCCOP(=O)(O)OP(=O)(O)OCC1OC(n2ccc(N)nc2=O)CC1O (configuration not stated) please.
Output: > 100 µM (inactive)

New cases:
Task: Record Oc1ncc(N(CCCl)CCCl)c(O)n1 [URACIL MUSTARD] : what is its GI50 with SK-OV-3?
Output: 47.2 µM (inactive)

Task: Quick check: GI50 on SK-OV-3, item O=S1(=O)c2ccccc2N(c2ccccc2)c2nnnn21 ?
Output: 42.3 µM (inactive)

Task: Give SK-OV-3 GI50 for COc1ccc(/C(=N/OCCCC(=O)O)c2cccs2)cc1
Output: > 100 µM (inactive)

Task: Form entry - test system: SK-OV-3; read-out: GI50; compound: COC(=O)C1C/C(=C/N(C)C)C(=S)N1 (configuration not stated)
Output: > 100 µM (inactive)
